assay: resazurin metabolic signal in HepG2 cells – cell-based, resazurin fluorescence, 24 h, PK04 Diversity Set, profiling panel (AID 1172); conditions: HepG2 viability, higher = more signal; also: test concentration not given here
Measured z-score, listed per entry.

{"COMPOUND": "C#CCNCc1ccccc1", "z-score": -0.0158}
{"COMPOUND": "OB1C=CCC(CCc2ccccc2)O1 (stereo not drawn)", "z-score": -0.246}
{"COMPOUND": "COc1ccc(CCNC(=O)[C@@]2(c3ccc([N+](=O)[O-])cc3)CC(=O)N(CC34CC5CC(CC(C5)C3)C4)[C@@H]2c2ccc(CO)cc2I)cc1", "z-score": -1.49}
{"COMPOUND": "C[N+](C)(C)CCCC[C@@H]1NC(=O)[C@@H]2C[C@H](C(=O)NCCCCCN)[C@H](c3ccc(O)cc3)N2C1=O", "z-score": 0.236}
{"COMPOUND": "O=C1O[C@@H](c2ccccc2)[C@@H](c2ccccc2)N2[C@@H](c3ccc(OCCO)cc3)[C@]3(C(=O)Nc4ccc(C#CCCO)cc43)[C@@H](C(=O)NC[C@H](O)c3ccccc3)[C@H]12", "z-score": 0.148}
{"COMPOUND": "CC(C)Cc1ccc(CN2CC[C@@H](N)C2)cc1", "z-score": 1.51}
{"COMPOUND": "O=C1OCC=C[C@H]2OC34C=CCN(CCN5CCOCC5)C(=O)[C@H]3N(CCO)C(=O)[C@@H]4[C@@H]12 (stereo partly drawn)", "z-score": 0.226}
{"COMPOUND": "O=C1NC(=O)C2C1C=CC(C(O)C1CC=CCC1)N2Nc1ccccn1 (stereo not drawn)", "z-score": -1.16}

---

target: Torsin-1A (Homo sapiens) (UniProt O14656); experiment: TOR1A wild-type binding on microarray – cell lysate, small-molecule microarray, lysate, 635/667 nm, primary screen (AID 1149); conditions: COS7 hTOR1A-WT lysate, 635 nm fluorescence, higher = more signal
Sequence (O14656 whole entry, looked up): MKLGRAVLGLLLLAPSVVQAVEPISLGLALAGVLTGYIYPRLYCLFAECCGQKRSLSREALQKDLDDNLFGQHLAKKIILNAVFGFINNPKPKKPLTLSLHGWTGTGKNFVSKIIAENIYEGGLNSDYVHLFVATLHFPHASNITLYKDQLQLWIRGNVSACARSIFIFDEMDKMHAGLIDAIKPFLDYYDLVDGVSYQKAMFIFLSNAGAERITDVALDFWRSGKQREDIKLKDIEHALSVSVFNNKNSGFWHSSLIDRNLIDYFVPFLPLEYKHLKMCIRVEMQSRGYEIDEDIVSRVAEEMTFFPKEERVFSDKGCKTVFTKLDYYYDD
# class assignment by measured composite z-score: lower segment (below -0.5), middle segment (-0.5 to below 0.5), upper segment (0.5 or more)

{"COMPOUND": "[N-]=[N+]=Nc1ccccc1C[C@@]1(C(=O)N2CCCCC2)N=C(c2ccc(OCCCO)cc2)O[C@@H]1c1ccccc1N=[N+]=[N-]", "GROUP LABEL": "middle segment"}
{"COMPOUND": "O=C1O[C@@H](c2ccccc2)[C@@H](c2ccccc2)N2[C@@H](c3ccccc3OCCO)[C@]3(C(=O)Nc4ccc(C#CC5(O)CCCCCC5)cc43)[C@@H](C(=O)N3CCN(c4ncccn4)CC3)[C@H]12", "GROUP LABEL": "upper segment"}
{"COMPOUND": "CO[C@H]1O[C@H](CO)[C@@H](OC(=O)Nc2ccc(Br)cc2)[C@@H]2OC(=O)[C@H](Cc3cccc(Br)c3)C/C=C/C[C@@H](Cc3cccc(Br)c3)C(=O)O[C@@H]12", "GROUP LABEL": "lower segment"}
{"COMPOUND": "COc1ccc(-c2cc3c(c(Cc4ccccc4)n2)[Si](C(C)C)(C(C)C)OC3)cn1", "GROUP LABEL": "middle segment"}
{"COMPOUND": "C=CC1c2cc(O)c(OC)cc2CCN1Cc1cccc(OC(F)(F)F)c1 (centres undefined)", "GROUP LABEL": "lower segment"}
{"COMPOUND": "COc1ccc(C(O)C2C=CC3C(=O)N(C)C(=O)C3N2NC(=O)OC(C)(C)C)c2ccccc12 (centres undefined)", "GROUP LABEL": "middle segment"}
{"COMPOUND": "C[N+](C)(C)CCCC[C@@H]1NC(=O)[C@@H]2C[C@H](C(=O)NCCCCCN)[C@H](c3ccc(O)cc3)N2C1=O", "GROUP LABEL": "upper segment"}
{"COMPOUND": "O=C1OCCC=C[C@H]2OC34C=CCN(c5ccc(Cl)cc5)C(=O)[C@H]3N(CCCO)C(=O)[C@@H]4C12 (some centres undefined)", "GROUP LABEL": "lower segment"}
{"COMPOUND": "C#CCN(C/C=C/c1ccccc1)[C@H](CO)c1ccccc1", "GROUP LABEL": "middle segment"}
